B1: DFFB (parent)
chain: TLVEAIKEQDGREVDWEYFYGLLF

variants of: B1; assay: protein stability index of a GFP-peptide fusion (GPS, HEK-293T) (PSI 1-6); higher = more stable; settings: c terminus: a fixed tail appended;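 also: lentivirally expressed fusions sorted by FACS into six bins by GFP to DsRed ratio, PSI derived from sequencing read proportions per bin multiplied by bin number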
quantity_kind: protein stability index
Form rule: numeric answer, no unit written next to it.

get_value(item= W16N , readout=protein stability index) returns 2.63

Note to self: protein stability index recorded for W16I was 1.93

protein stability index in this record for E13L : 1.57

Form: variant = L2D ; protein stability index = 2.17

Recorded result, L23D , protein stability index: 2

The variant L2F showed protein stability index equal to 1.95

// sample V3Y , its protein stability index was 1.39

// protein stability index lookup, variant = L23F , result: 2.26

The variant identified as L2E registered its protein stability index at 3.08

The variant L2P showed protein stability index equal to 2.41

Data point: Y20P ; protein stability index = 2.67

# protein stability index (variant: E17P ) is 1.33

The measured protein stability index associated with Q9D reads 1.97

Form: variant = W16V ; protein stability index = 2.61

Entry Q9S , protein stability index reported as 1.66

Documented protein stability index of A5S : 2.15

Entry I6T ; protein stability index = 2.01

For reference, reported protein stability index for R12G stands at 1.74

protein stability index for T1N is 2.02

Reported protein stability index for G11K was 1.61

Lab book: protein stability index of E4K noted as 2.99

Measured protein stability index of A5G : 2.68

Looking up Y20E , I found its protein stability index recorded as 1.67

Just so you know, measured protein stability index for Y18W came out at 1.76

Lab note: measured protein stability index of G11M was 2.13

// protein stability index lookup, variant = Y20T , result: 1.54

The variant identified as V14H registered its protein stability index at 1.91

Reported protein stability index ( T1M ) = 1.31

Recorded protein stability index (variant E17Y ): 1.67

Lab book: protein stability index of D15R noted as 1.75

V3L yielded protein stability index of 2.22

protein stability index reported for this variant V3D : 2.65

Form: variant = L23Y ; protein stability index = 2.86

Looking up I6P , I see its protein stability index listed as 2.17

# protein stability index of F19H = 2.5

F19R yielded protein stability index of 2.31

Quick note, protein stability index for E13Y landed at 3.29

Form field protein stability index, entry G11Y : 1.88

# variant V14W ; its protein stability index = 2.12

variant A5C , protein stability index observed: 1.95

What the record says about D10A : protein stability index is 2.01

Sample G21P ; protein stability index observed: 1.46

protein stability index recorded for this variant, G11F , is 1.02

Field protein stability index (entry Y18V ) reads 2.34

Short answer for F19A : protein stability index was 1.9

Noted for E4G : its protein stability index reads 2.26

For record W16L the listed protein stability index is 1.66

# protein stability index (variant: L22A ) is 2

response.value for D10G (field: protein stability index) = 2.66

Entry A5R ; protein stability index = 2.29

Just so you know, measured protein stability index for E4Q came out at 1.97

Entry G11T ; protein stability index = 2.28

So, V3E ? Its protein stability index was 2.86

Per the records, this variant ( F24T ) has protein stability index equal to 2.42

Per the records, this variant ( E13F ) has protein stability index equal to 1.85

Form field protein stability index, entry D15W : 1.88

The variant identified as E13W registered its protein stability index at 2.27

Noted for L22Y : its protein stability index reads 1.86

Per the records, this variant ( F24W ) has protein stability index equal to 1.07

Record D10N , field protein stability index: 1.86

Noted for L22Q : its protein stability index reads 2.94

For this variant ( E17F ), measured protein stability index is 1.6

The variant I6S showed protein stability index equal to 1.89

Notebook: E13V , protein stability index read as 2.07

Entry I6K ; protein stability index = 2.2

Just so you know, measured protein stability index for W16F came out at 1.93

GET /value?item= F19V &field=protein stability index returns 1.42
